Consider the following sequences; for each one, report its Tm.
Assay: melting temperature; fluorescence melt of hairpins on a sequencing array, two-state fit, raised by 9.35 °C to match UV melts
Conditions: sodium 0.088 M
Numbers only, in °C.

GCCAGCGAAAGCTCTGGC ((((((....)))..)))    50.6
GTGAGGCCGAAAGGCCAC (((..(((....))))))    50.3
GCAGTGCCGAAAGGCTGC (((..(((....))))))    49.8
GCCCAGGGAAACTTGGGC (((((.(....).)))))    56.5

Parameters: items (list). Returns: Tm for each item.
1. GATCAGACCCTGATC ((((((...))))))
2. GATCGTGTTACGATC ((((((...))))))
3. GAATAGGAAACTATTC ((((((....))))))
4. GTCGACGAAAGTCCGAC ((((((....))).)))
5. GAGTTAGGAAACTAACCC (.(((((....))))).)

Key:
1. 47.7
2. 56.9
3. 40.7
4. 51.7
5. 30.4

Parameters: items (list). Returns: Tm for each item.
1. GTAACTGGAAACAGTTGC (.(((((....))))).)
2. GTCGGACGAAAGTCGGAC (((.(((....))).)))
3. GATCAATATCTTGATC ((((((....))))))
4. GCAGTATCGAAAGATTGC (((..(((....))))))

Key:
47.4
58.5
42.6
34.9

====

Assay: folding enthalpy; higher = less favourable; fluorescence melt of hairpins on a sequencing array, two-state fit
Settings: sodium 0.088 M
folding enthalpy vs -30 kcal/mol: at or above is YES, below is NO.

The following sequences have reported results that may help.
GAAGGCCGAAAGGCGTTC (((.(((....))).)))    YES
GCTGGCGGAAACGCTGGC ((..(((....)))..))    NO
GCCAAGCGAAAGCTGGC (((.(((....))))))    YES
GGGCTTGGAAACAGGTCC ((.(.((....)).).))    YES
GTGAACGAAAGTTACCAC ((((((....)))..)))    YES

Exercise: Please tell me: is the sequence GTGCATGAAAATGCAC ((((((....)))))) at or over -30 kcal/mol in terms of folding enthalpy?
Key: NO

Exercise: Another sequence to check: GATCCCTTCCGGGATC ((((((....))))))
Key: NO

Exercise: Another sequence to check: GATCATTCGGATGATC ((((((....))))))
Key: NO

Exercise: Another sequence to check: GGGAAGGAAACTTCCC ((((((....))))))
Key: NO

====

Assay: melting temperature; fluorescence melt of hairpins on a sequencing array, two-state fit, raised by 9.35 °C to match UV melts
Settings: sodium 0.088 M
RESULT_TYPE: Tm (°C)
One number for each entry, in °C.

GAAAGCGAAAGCTCTTTC ((((((....)))..)))    38.2
GCGTCCGAAAGGATCGC ((((((....))).)))    59.5

Parameters: items (list). Returns: Tm for each item.
1. GCCATCGAAAGATGGGC ((((((....))).)))
2. GATCTGGTCGCAGATC ((((((....))))))
3. GCTAAACGAAAGTTAAGC (((.(((....))).)))
4. GCGGCTGCGAAAGCACGC (((..(((....))))))
5. GATCAGATCCTGATC ((((((...))))))
6. GGGCTGGGAAACTAGCCC (((((.(....).)))))

Key:
1. 63.2
2. 52.4
3. 44.3
4. 57.9
5. 48.2
6. 58.1

====

Assay: melting temperature; fluorescence melt of hairpins on a sequencing array, two-state fit, raised by 9.35 °C to match UV melts
Conditions: sodium 0.088 M
Consider the following sequences; for each one, report its Tm.
Express the reported value numerically, then name its unit.

GATCTTCTATAAGATC ((((((....))))))    43.5 °C
TTCCTGAAAAGGAA (((((....)))))    39.9 °C
GATCGAATGGTCGATC ((((((....))))))    51.4 °C

Next item in the queue.
Exercise: // lookup Tm for GTTGCGCGAAAGCGGAAC (((.(((....))).)))
Key: 67.6 °C

====

Assay: folding enthalpy; higher = less favourable; fluorescence melt of hairpins on a sequencing array, two-state fit
Conditions: sodium 0.088 M
RESULT_TYPE: folding enthalpy (kcal/mol)
Numbers only, in kcal/mol.

In the examples that follow, each entry is paired with its recorded folding enthalpy.
GATCTGATGTCAGATC ((((((....))))))    -53.1
GCCAAAGGAAACTTTGGC (((((((....)))))))    -44.4
GCGAACACGAAAGTGCGC (((..(((....))))))    -21.2

Exercise: // lookup folding enthalpy for CGCGGAAGGTCCGCG ((((((...))))))
Key: -27.1

====

Test: folding enthalpy; higher = less favourable; fluorescence melt of hairpins on a sequencing array, two-state fit
Conditions: sodium 0.088 M
RESULT_TYPE: folding enthalpy (kcal/mol)
One number for each entry, in kcal/mol.

In the examples that follow, each entry is paired with its recorded folding enthalpy.
GATCCTATCGAGGATC ((((((....))))))    -27.1
GGGTAACGAAAGTTGCCC (((.(((....))).)))    -49.4
GCATGAGGAAACCCATGC (((((.(....).)))))    -36.8

Parameters: items (list). Returns: folding enthalpy for each item.
1. GGGATCGAAAGATGGCCC ((((((....)))..)))
2. GCTGAGCGAAAGCACAGC ((((.((....)).))))
3. GCAAACACGAAAGTGTGC (((..(((....))))))
4. GCTACGCGAAAGCTCAGC (((..((....))..)))

Key:
[-13.8, -35.6, -15.4, -13.1]

====

Test: melting temperature; fluorescence melt of hairpins on a sequencing array, two-state fit, raised by 9.35 °C to match UV melts
Details: sodium 0.088 M
Tm vs 50 °C: at or above is y, below is n.

GGGTACGAAAGTAACCC ((((((....))).)))    y
GAACTCGGAAACGAGTCC (.(((((....))))).)    n
GATGGCGAAAGCCCATC ((((((....))).)))    y

Exercise: Please tell me: is the sequence GGACTCGAAAGAGTTTCC ((((((....)))..))) at or over 50 °C in terms of Tm?
Key: n

Exercise: Another sequence to check: GGGTGCGAAAGCAGACCC ((((((....)))..)))
Key: y

Exercise: Another sequence to check: GATCTTGCTAAAGATC ((((((....))))))
Key: y
